Test system: HCT-116 human colon carcinoma cells
testDescription: Cytotoxic activity on culture of human colon carcinoma cells HCT-116 (Alamar Blue)
Assay type: cell-based
measurementParameters: HCT-116 cells, 72 hours after addition of compounds, Alamar Blue viability
Experimental: Evaluation of Cytotoxic Activity on Culture of Human Colon Carcinoma Cells HCT-116 Human colon carcinoma cells HCT-116 were seeded onto 96-well plates in RPMI1640 culture medium with added 10% FBS and 2 mM glutamine. […] 72 hours after addition of the compounds, cell viability is measured by means of the dye Alamar Blue. The result is expressed as percent survival of the treated relative to the control, treated with carrier alone.
Simple rule here: IC50 less than 200 nM is class 1, otherwise class 0.

As a guide, the following entries are already answered.
# compound, cat
rows = [
    ("COc1ccc2c(c1)N(CCCCCC(=O)NO)S(=O)(=O)c1ccccc1N2", "class 0"),
    ("O=C(CCCCCN1C(=O)c2ccccc2S(=O)(=O)c2ccccc21)NO", "class 1"),
    ("COc1ccc2c(c1)N(CCCCCC(=O)NO)C(=O)c1ccccc1[S+]2[O-] (stereo not drawn)", "class 1"),
    ("COc1ccc2c(c1)Nc1ccc(N(C)C)cc1S(=O)(=O)N2CCCCCC(=O)NO", "class 0"),
    ("O=C(CCCCCN1C(=O)c2ccccc2Oc2ccccc21)NO", "class 0"),
]

Exam item: Please state whether IC50 is below 200 nM for `O=C(CCCCCN1c2ccccc2Oc2ccccc2S1(=O)=O)NO`
Marked response: class 1

Exam item: Given the entry `O=C(CCCCCN1C(=O)c2ccccc2S(=O)(=O)c2ccc(Cl)cc21)NO` , would its reported IC50 be below 200 nM?
Marked response: class 1
